These measurements were taken from patent US20230310459A1.

Assay: Phase 1 four-period crossover study of relative bioavailability and food effect, Compound 1 Capsules vs Oral Solution, plasma PK
Assay type: in vivo, human
Details: human, plasma, po, 30 mg, single 30 mg oral dose, Capsules, fed [standard meal], healthy subjects, plasma; read-out: AUC0-t, arithmetic mean
Measurement Kind: AUC(0-t) (µg·h/mL)
// return numeric value only (unit: µg·h/mL, not printed)

The compound listed as C[C@@]1(O)CC[C@H]2[C@H](CC[C@@H]3[C@@H]2CC[C@]2(C)[C@@H](C(=O)Cn4cc(C#N)cn4)CC[C@@H]32)C1 [Compound 1] has a reported AUC(0-t) of 0.852

----------
Experiment: Phase 1 four-period crossover study of relative bioavailability and food effect, Compound 1 Capsules vs Oral Solution, plasma PK
Format: in vivo, human
Settings: human, plasma, po, 30 mg, single 30 mg oral dose, Capsules, fed [high-fat meal], healthy subjects, plasma; read-out: t1/2, arithmetic mean (converted)
Protocol: In a Phase 1, single-center, open-label, four-period, two-sequence crossover study, Compound 1 capsules were evaluated for safety, tolerability, and relative bioavailability. Twelve (12) subjects completed all four periods of the study; subjects who replaced discontinued subjects were allocated to the same randomization sequence as those discontinued. Up to 24 subjects were recruited into the study. […] The plasma samples were kept frozen at approximately −70 to −80° C. until analyzed. […]
Measurement Kind: half-life (h)
// return numeric value only (unit: h, not printed)

The compound listed as `C[C@@]1(O)CC[C@H]2[C@H](CC[C@@H]3[C@@H]2CC[C@]2(C)[C@@H](C(=O)Cn4cc(C#N)cn4)CC[C@@H]32)C1` has a reported half-life of 12.9

----------
Experiment: Phase 2 open-label study (Part A): plasma pharmacokinetics
Format: in vivo, human
Conditions: human, plasma; Day 7, steady state; 30 mg oral solution once daily with food; MDD subjects; N=13; read-out: Cmax, geometric mean
Measurement Kind: Cmax (ng/mL)
// return numeric value only (unit: ng/mL, not printed)

The molecule listed as `C[C@@]1(O)CC[C@H]2[C@H](CC[C@@H]3[C@@H]2CC[C@]2(C)[C@@H](C(=O)Cn4cc(C#N)cn4)CC[C@@H]32)C1` has a reported Cmax of 101

----------
Assay: Phase 1 four-period crossover study of relative bioavailability and food effect, Compound 1 Capsules vs Oral Solution, plasma PK
Type: in vivo, human
Details: human, plasma, po, 30 mg, single 30 mg oral dose, Capsules, fed [standard meal], healthy subjects, plasma; read-out: AUC0-inf, arithmetic mean
Measurement Kind: AUC(0-inf) (ng·h/mL)
// return numeric value only (unit: ng·h/mL, not printed)

The molecule listed as `C[C@@]1(O)CC[C@H]2[C@H](CC[C@@H]3[C@@H]2CC[C@]2(C)[C@@H](C(=O)Cn4cc(C#N)cn4)CC[C@@H]32)C1` has a reported AUC(0-inf) of 1020

----------
Test: Phase 1 four-period crossover study of relative bioavailability and food effect, Compound 1 Capsules vs Oral Solution, plasma PK
Format: in vivo, human
Details: human, plasma, po, 30 mg, single 30 mg oral dose, Capsules, fed [high-fat meal], healthy subjects, plasma; read-out: AUC0-inf, geometric mean
Measurement Kind: AUC(0-inf) (ng·h/mL)
// return numeric value only (unit: ng·h/mL, not printed)

The compound listed as C[C@@]1(O)CC[C@H]2[C@H](CC[C@@H]3[C@@H]2CC[C@]2(C)[C@@H](C(=O)Cn4cc(C#N)cn4)CC[C@@H]32)C1 [Compound 1] has a reported AUC(0-inf) of 867

----------
Assay: Phase 1 four-period crossover study of relative bioavailability and food effect, Compound 1 Capsules vs Oral Solution, plasma PK
Assay type: in vivo, human
Conditions: human, plasma, po, 30 mg, single 30-mg oral dose, Oral Solution, fasted, healthy subjects, plasma; read-out: AUC0-t, geometric mean
Measurement Kind: AUC(0-t) (ng·h/mL)
// return numeric value only (unit: ng·h/mL, not printed)

The molecule listed as `C[C@@]1(O)CC[C@H]2[C@H](CC[C@@H]3[C@@H]2CC[C@]2(C)[C@@H](C(=O)Cn4cc(C#N)cn4)CC[C@@H]32)C1` has a reported AUC(0-t) of 776

----------
Assay: Phase 1 four-period crossover study of relative bioavailability and food effect, Compound 1 Capsules vs Oral Solution, plasma PK
Assay type: in vivo, human
Settings: human, plasma, po, 30 mg, single 30-mg oral dose, Capsules, fasted, healthy subjects, plasma; read-out: AUC0-t, geometric mean
Measurement Kind: AUC(0-t) (ng·h/mL)
// return numeric value only (unit: ng·h/mL, not printed)

The compound listed as `C[C@@]1(O)CC[C@H]2[C@H](CC[C@@H]3[C@@H]2CC[C@]2(C)[C@@H](C(=O)Cn4cc(C#N)cn4)CC[C@@H]32)C1` has a reported AUC(0-t) of 530

----------
Experiment: Phase 1 four-period crossover study of relative bioavailability and food effect, Compound 1 Capsules vs Oral Solution, plasma PK
Assay type: in vivo, human
Details: human, plasma, po, 30 mg, single 30 mg oral dose, Capsules, fed [high-fat meal], healthy subjects, plasma; read-out: t1/2, median (converted)
Measurement Kind: half-life (min)
// return numeric value only (unit: min, not printed)

The compound listed as C[C@@]1(O)CC[C@H]2[C@H](CC[C@@H]3[C@@H]2CC[C@]2(C)[C@@H](C(=O)Cn4cc(C#N)cn4)CC[C@@H]32)C1 [Compound 1] has a reported half-life of 762

----------
Experiment: Phase 1 four-period crossover study of relative bioavailability and food effect, Compound 1 Capsules vs Oral Solution, plasma PK
Assay type: in vivo, human
Conditions: human, plasma, po, 30 mg, single 30 mg oral dose, Capsules, fed [high-fat meal], healthy subjects, plasma; read-out: Cmax, geometric mean
Measurement Kind: Cmax (ng/mL)
// return numeric value only (unit: ng/mL, not printed)

The compound listed as `C[C@@]1(O)CC[C@H]2[C@H](CC[C@@H]3[C@@H]2CC[C@]2(C)[C@@H](C(=O)Cn4cc(C#N)cn4)CC[C@@H]32)C1` has a reported Cmax of 62.8

----------
Experiment: Phase 1 four-period crossover study of relative bioavailability and food effect, Compound 1 Capsules vs Oral Solution, plasma PK
Type: in vivo, human
Settings: human, plasma, po, 30 mg, single 30-mg oral dose, Oral Solution, fasted, healthy subjects, plasma; read-out: Cmax, arithmetic mean
Measurement Kind: Cmax
Please make sure the unit comes right after the number.

The molecule listed as C[C@@]1(O)CC[C@H]2[C@H](CC[C@@H]3[C@@H]2CC[C@]2(C)[C@@H](C(=O)Cn4cc(C#N)cn4)CC[C@@H]32)C1 [Compound 1] has a reported Cmax of 120 ng/mL

----------
Assay: Phase 1 four-period crossover study of relative bioavailability and food effect, Compound 1 Capsules vs Oral Solution, plasma PK
Assay type: in vivo, human
Details: human, plasma, po, 30 mg, single 30 mg oral dose, Capsules, fed [standard meal], healthy subjects, plasma; read-out: AUC0-t, geometric mean
Method: In a Phase 1, single-center, open-label, four-period, two-sequence crossover study, Compound 1 capsules were evaluated for safety, tolerability, and relative bioavailability. Twelve (12) subjects completed all four periods of the study; subjects who replaced discontinued subjects were allocated to the same randomization sequence as those discontinued. Up to 24 subjects were recruited into the study. […] The plasma samples were kept frozen at approximately −70 to −80° C. until analyzed. […]
Measurement Kind: AUC(0-t) (ng·h/mL)
// return numeric value only (unit: ng·h/mL, not printed)

The compound listed as C[C@@]1(O)CC[C@H]2[C@H](CC[C@@H]3[C@@H]2CC[C@]2(C)[C@@H](C(=O)Cn4cc(C#N)cn4)CC[C@@H]32)C1 [Compound 1] has a reported AUC(0-t) of 838

----------
Assay: Phase 1 four-period crossover study of relative bioavailability and food effect, Compound 1 Capsules vs Oral Solution, plasma PK
Type: in vivo, human
Details: human, plasma, po, 30 mg, single 30-mg oral dose, Capsules, fasted, healthy subjects, plasma; read-out: Cmax, geometric mean
Measurement Kind: Cmax (ng/mL)
// return numeric value only (unit: ng/mL, not printed)

The molecule listed as `C[C@@]1(O)CC[C@H]2[C@H](CC[C@@H]3[C@@H]2CC[C@]2(C)[C@@H](C(=O)Cn4cc(C#N)cn4)CC[C@@H]32)C1` has a reported Cmax of 21.8

----------
Test: Phase 1 four-period crossover study of relative bioavailability and food effect, Compound 1 Capsules vs Oral Solution, plasma PK
Type: in vivo, human
Conditions: human, plasma, po, 30 mg, single 30-mg oral dose, Oral Solution, fasted, healthy subjects, plasma; read-out: AUC0-t, median
Measurement Kind: AUC(0-t) (ng·h/mL)
// return numeric value only (unit: ng·h/mL, not printed)

The compound listed as C[C@@]1(O)CC[C@H]2[C@H](CC[C@@H]3[C@@H]2CC[C@]2(C)[C@@H](C(=O)Cn4cc(C#N)cn4)CC[C@@H]32)C1 [Compound 1] has a reported AUC(0-t) of 788

----------
Test: Phase 1 four-period crossover study of relative bioavailability and food effect, Compound 1 Capsules vs Oral Solution, plasma PK
Type: in vivo, human
Details: human, plasma, po, 30 mg, single 30 mg oral dose, Capsules, fed [standard meal], healthy subjects, plasma; read-out: AUC0-inf, median
Measurement Kind: AUC(0-inf) (ng·h/mL)
// return numeric value only (unit: ng·h/mL, not printed)

The molecule listed as C[C@@]1(O)CC[C@H]2[C@H](CC[C@@H]3[C@@H]2CC[C@]2(C)[C@@H](C(=O)Cn4cc(C#N)cn4)CC[C@@H]32)C1 [Compound 1] has a reported AUC(0-inf) of 1060
